Data provenance: patent US10246442B2

# Test system: Erythropoietin secretion, Hep-3B cells
# Method: Cellular assay: EPO secretion in Hep-3B cells
# Type: cell-based
# Measurement setup: Homo sapiens, Hep3B, 100 μM compound, 24 hours, percent of EPO secretion relative to assay control compound 7-[(4-Chloro-phenyl)-(5-methyl-isoxazol-3-ylamino)-methyl]-quinolin-8-ol, read-out: Cellular % EPO Stimulation
Values of activation at 100 µM greater than or equal to 40% map to true; values below map to false.

Sample answers from the record:
Smiles str | Qualitative label
CC(=O)NC1CCN(c2nc(-n3cc(C(=O)O)cn3)nc3ccc(Oc4ccc(Cl)cc4)cc23)CC1 | false
CN(C)c1nc(-n2cc(C(=O)O)cn2)nc2cc(Oc3ccccc3)ccc12 | true
O=C(O)c1cnn(-c2nc(N3CCCC3)c3cc(OC4CCCCC4)ccc3n2)c1 | true
Cc1cccc(C)c1Oc1cc2c(Nc3ccccc3Cl)nc(-n3cc(C(=O)O)cn3)nc2cc1F | false
O=C(O)c1cnn(-c2nc(N3CCCCC3)c3cc(C4CCCCC4)ccc3n2)c1 | false
O=C(O)c1cnn(-c2nc(N3CCCC3)c3cc(Oc4ccc(Cl)cc4)ccc3n2)c1 | true
O=C(O)c1cnn(-c2nc(N3CCOCC3)c3cc(C4CCCCC4)ccc3n2)c1 | false
Cc1cccc(C)c1Oc1cc2c(NCC3CC3)nc(-n3cc(C(=O)O)cn3)nc2cc1F | true
Cc1cccc(C)c1Oc1cc2c(NC3CCOCC3)nc(-n3cc(C(=O)O)cn3)nc2cc1F | true
O=C(O)c1cnn(-c2nc(N3CCCC3)c3cc(Oc4ccccc4)ccc3n2)c1 | false

Form field: activation at 100 µM at least 40%? Entry: `CCN(CC)c1nc(-n2cc(C(=O)O)cn2)nc2ccc(C3CCCCC3)cc12`
true

Form field: activation at 100 µM at least 40%? Entry: `O=C(O)c1cnn(-c2nc(N3CCOCC3)c3cc(OC4CCCCC4)ccc3n2)c1`
false

Form field: activation at 100 µM at least 40%? Entry: `CCN(C)c1nc(-n2cc(C(=O)O)cn2)nc2cc(Cl)c(C(C)C)cc12`
true

Form field: activation at 100 µM at least 40%? Entry: `O=C(O)c1cnn(-c2nc(N3CCCCC3)c3ccc(Oc4ccccc4)cc3n2)c1`
false

Form field: activation at 100 µM at least 40%? Entry: `O=C(O)c1cnn(-c2nc(NC3CC3)c3cc(OC4CCCCC4)c(F)cc3n2)c1`
false

Form field: activation at 100 µM at least 40%? Entry: `CC(C)c1cc2c(N(C)C)nc(-n3cc(C(=O)O)cn3)nc2cc1Cl`
false

Form field: activation at 100 µM at least 40%? Entry: `CC(C)c1ccc2nc(-n3cc(C(=O)O)cn3)nc(NC3CC3)c2c1`
false

Form field: activation at 100 µM at least 40%? Entry: `CCN(CC)c1nc(-n2cc(C(=O)O)cn2)nc2ccc(OC3CCCCC3)cc12`
false

Form field: activation at 100 µM at least 40%? Entry: `Cc1cccc(C)c1Oc1cc2c(NC3CC3)nc(-n3cc(C(=O)O)cn3)nc2cc1F`
true

Form field: activation at 100 µM at least 40%? Entry: `O=C(O)c1cnn(-c2nc(NC3CC3)c3cc(C4CCCCC4)ccc3n2)c1`
true

Form field: activation at 100 µM at least 40%? Entry: `Cc1cccc(C)c1CNc1nc(-n2cc(C(=O)O)cn2)nc2ccc(C3CCCCC3)cc12`
false

Form field: activation at 100 µM at least 40%? Entry: `O=C(O)c1cnn(-c2nc(N3CCCCCC3)c3cc(C4CCCCC4)ccc3n2)c1`
false

Form field: activation at 100 µM at least 40%? Entry: `CCCCN(CCCC)c1nc(-n2cc(C(=O)O)cn2)nc2cc(F)c(Oc3c(C)cccc3C)cc12`
false

Form field: activation at 100 µM at least 40%? Entry: `CN(C)c1nc(-n2cc(C(=O)O)cn2)nc2cc(Cl)c(OC3CCCCC3)cc12`
false

Form field: activation at 100 µM at least 40%? Entry: `CCN(CC)c1nc(-n2cc(C(=O)O)cn2)nc2cc(F)c(OC3CCCCC3)cc12`
false

Form field: activation at 100 µM at least 40%? Entry: `Cc1cccc(C)c1Oc1cc2c(Nc3ccccc3)nc(-n3cc(C(=O)O)cn3)nc2cc1F`
false

Form field: activation at 100 µM at least 40%? Entry: `Cc1cccc(C)c1Oc1cc2c(N)nc(-n3cc(C(=O)O)cn3)nc2cc1F`
true

Form field: activation at 100 µM at least 40%? Entry: `CNc1nc(-n2cc(C(=O)O)cn2)nc2ccc(C3CCCCC3)cc12`
true

Form field: activation at 100 µM at least 40%? Entry: `CCN(CC)c1nc(-n2cc(C(=O)O)cn2)nc2ccc(-c3ccccc3)cc12`
false

Form field: activation at 100 µM at least 40%? Entry: `CC(C)c1cc2c(NC3CC3)nc(-n3cc(C(=O)O)cn3)nc2cc1Cl`
false

Form field: activation at 100 µM at least 40%? Entry: `CC(C)c1ccc2nc(-n3cc(C(=O)O)cn3)nc(N(C)C)c2c1`
true

Form field: activation at 100 µM at least 40%? Entry: `Cc1cccc(C)c1Oc1cc2c(NCC3CCCCC3)nc(-n3cc(C(=O)O)cn3)nc2cc1F`
false
